Experiment: in vivo
Parameters: species or system mice
Settings: male, SCID, mouse, iv, total radioactivity, Biodistribution, Lungs
Residues, ends and D or L forms follow the SMILES beside them. *: point of attachment. DOTA = O=C(O)CN1CCN(CC(=O)O)CCN(CC(=O)*)CCN(CC(=O)O)CC1; X1 = Cc1ccc(CCCC(=O)NCCOCCOCCOCCOCC(=O)*)cc1; βAla = NCCC(=O)O
experimental_endpoint: tissue uptake at 1 h (%ID/g)
Numbers only, in %ID/g.

## Input tissue uptake at 1 h lookup needed for CC[C@H](C)[C@H](NC(=O)[C@H](Cc1ccc(O)cc1)NC(=O)[C@@H]1CCCN1C(=O)[C@H](CCCNC(=N)N)NC(=O)[C@H](CCCNC(=N)N)NC(=O)[C@H](CCCCNC(=O)COCCOCCOCCOCCNC(=O)CCCc1ccc(C)cc1)NC(=O)CCNC(=O)CCNC(=O)CCNC(=O)CN1CCN(CC(=O)O)CCN(CC(=O)O)CCN(CC(=O)O)CC1)C(=O)N[C@@H](CC(C)C)C(=O)O [[^67Ga]Ga-DT14D, metal not drawn] ({DOTA-βAla-βAla-βAla}-K(X1)RRPYIL-OH) , thanks.
## Output 4.31

Measured values drawn from paper PMC11944670 for this set.
